system_under_test: hMcl-1 (residues 172–323) with N-terminal His tag (human, UniProt Q07820 172-323)
Sequence (Q07820 172-323): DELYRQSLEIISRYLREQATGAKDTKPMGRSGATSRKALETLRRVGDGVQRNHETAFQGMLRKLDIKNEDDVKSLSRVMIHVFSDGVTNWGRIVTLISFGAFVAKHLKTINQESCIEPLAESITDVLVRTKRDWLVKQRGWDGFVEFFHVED
assay_name: DELFIA displacement assay
Non-standard residues stand in square brackets, D forms with d. hSer = N[C@@H](CCO)C(=O)O; Nle = CCCC[C@H](N)C(=O)O
For each record, write down the corresponding IC50.

Given H-AIAQALRRIGDA[Nle]-NH2 (SMILES CCCC[C@H](NC(=O)[C@H](C)NC(=O)[C@H](CC(=O)O)NC(=O)CNC(=O)[C@@H](NC(=O)[C@H](CCCNC(=N)N)NC(=O)[C@H](CCCNC(=N)N)NC(=O)[C@H](CC(C)C)NC(=O)[C@H](C)NC(=O)[C@H](CCC(N)=O)NC(=O)[C@H](C)NC(=O)[C@@H](NC(=O)[C@H](C)N)[C@@H](C)CC)[C@@H](C)CC)C(N)=O) [peptide 5] , state its recorded IC50.
~1.6 µM

How about Ac-AIAEQLRRIGDRF-NH2 [peptide 12] ?
0.57 µM

How about H-AIAQ[hSer]LRRIGDAF-NH2 (SMILES CC[C@H](C)[C@H](NC(=O)[C@H](C)N)C(=O)N[C@@H](C)C(=O)N[C@@H](CCC(N)=O)C(=O)N[C@@H](CCO)C(=O)N[C@@H](CC(C)C)C(=O)N[C@@H](CCCNC(=N)N)C(=O)N[C@@H](CCCNC(=N)N)C(=O)N[C@H](C(=O)NCC(=O)N[C@@H](CC(=O)O)C(=O)N[C@@H](C)C(=O)N[C@@H](Cc1ccccc1)C(N)=O)[C@@H](C)CC) [peptide 9] ?
~3 µM
